# tested system: HA of influenza B virus ca B/Ann Arbor/1/66 (influenza B virus B/Ann Arbor/1/66)
# protocol description: cell-based or functional assay
The entries below come with measured Neutralization (Ave IC50 ug/ml) values attached.
Value expressed in µg/mL; do not type the unit.

Before answering, review these 3 worked examples.
FBC-39 LTL (antibody, V domains shown) VH: EVQLVESGGGLVKPGGSLRLSCAASGLTFLNAWMSWVRQAPGKGLEWVGRIKSNTDGGTTDYAAPVKGRFTISRDDSKNTLYLQMSSLKTEDTAVYYCTTDGPYSDDFRSGYAARYRYFGMDVWGQGTTVTVSS VL: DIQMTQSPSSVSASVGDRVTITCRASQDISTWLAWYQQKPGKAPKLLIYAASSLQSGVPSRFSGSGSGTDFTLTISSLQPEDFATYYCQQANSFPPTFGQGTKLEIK :: 0.023
FBC-39 LSL (antibody, V domains shown) VH: EVQLVESGGGLVKPGGSLRLSCAASGLSFLNAWMSWVRQAPGKGLEWVGRIKSNTDGGTTDYAAPVKGRFTISRDDSKNTLYLQMSSLKTEDTAVYYCTTDGPYSDDFRSGYAARYRYFGMDVWGQGTTVTVSS VL: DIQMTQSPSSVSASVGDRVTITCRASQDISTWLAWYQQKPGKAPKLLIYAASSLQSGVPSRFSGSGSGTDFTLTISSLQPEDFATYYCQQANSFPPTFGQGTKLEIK :: 0.027
FBD-94 (antibody, V domains shown) VH: EVQLVESGGGLVQPGRSLRLSCAVSGFIFEDYAINWVRQAPGKGLEWVSIISWDSGRIGYADSVRGRFTISRDNAKNSSFLQMNSLRPEDTAVYYCVKDMLAYYYDGSGIRYNLYGMDVWGQGTTVTVSS VL: EIVLTQSPATLSLSPGERATLSCRASRSITTFLAWYQQKPGQAPRLLIYDASNRATGVPARFSGSGSGTDFTLTINSLEPDDFAIYYCQQRDHWPPIFGQGTRLEIK :: 0.014

Would you kindly look at the next entry?
Read off the recorded Neutralization (Ave IC50 ug/ml) for FBC-39 (antibody, V domains shown) VH: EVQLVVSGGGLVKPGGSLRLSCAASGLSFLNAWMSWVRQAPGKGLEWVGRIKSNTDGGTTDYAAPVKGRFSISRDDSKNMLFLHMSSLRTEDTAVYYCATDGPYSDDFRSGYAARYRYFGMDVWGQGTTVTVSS VL: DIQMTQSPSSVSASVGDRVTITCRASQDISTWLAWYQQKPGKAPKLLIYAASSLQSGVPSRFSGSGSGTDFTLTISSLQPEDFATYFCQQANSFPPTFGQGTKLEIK 0.061

Measured values drawn from patent US20250263470A1 for this set.
